# Test system: estrogen surface receptor (ESR1)
# TEST: Intracellular calcium (fura-2) in human arterial endothelial cells, estrogen compounds
# Assay type: cell-based
# MEASUREMENT_PARAMETERS: stated with the [Ca^2+]i results
QUANTITY_KIND: pEC50
Please express pEC50 as -log10 of the molar concentration.

Lookup: Request - read-out pEC50 | tested on estrogen surface receptor (ESR1) | compound C[C@]12CC[C@@H]3c4ccc(O)cc4CC[C@H]3[C@@H]1CC[C@@H]2O
Found: 9.30
